Where these numbers come from: patent US20260008758A1

Molecular target: DPP1 in HL-60 cells (Homo sapiens (Human), UniProt P53634)
Sequence (P53634 25-134): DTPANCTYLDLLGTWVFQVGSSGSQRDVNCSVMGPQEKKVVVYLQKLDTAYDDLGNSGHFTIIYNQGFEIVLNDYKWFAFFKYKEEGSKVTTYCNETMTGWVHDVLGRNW
Sequence (P53634 231-394): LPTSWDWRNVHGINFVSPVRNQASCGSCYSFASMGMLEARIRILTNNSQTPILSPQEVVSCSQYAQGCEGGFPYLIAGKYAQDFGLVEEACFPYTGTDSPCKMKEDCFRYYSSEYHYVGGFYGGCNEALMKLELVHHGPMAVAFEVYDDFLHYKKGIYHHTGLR
Sequence (P53634 395-463): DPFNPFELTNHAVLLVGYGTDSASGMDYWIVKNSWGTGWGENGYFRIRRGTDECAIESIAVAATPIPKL
Test: DPP1 cell single-point percent inhibition testing (HL-60 cells, H-Gly-Phe-AFC substrate)
Format: cell-based
Conditions: read-out: DPP1 cell % inhibition @ 5 nM, 5 nM compound, 100 μM H-Gly-Phe-AFC, 60 min pre-incubation at 37° C.

{"compound": "COCCN(C)CCn1c(=O)oc2ccc(-c3ccc(C[C@@H](C#N)NC(=O)[C@@H](O)CN(C)C)c(F)c3)cc21", "inhibition at 0.005 µM": "≤ 76.5%"}
{"compound": "CO[C@@H](CN(C)C)C(=O)N[C@H](C#N)Cc1ccc(-c2ccc(CN3CCN(C)CC3)cc2)cc1F", "inhibition at 0.005 µM": "76.5 to 93.9%"}
{"compound": "CN(C)C[C@](C)(O)C(=O)NC(C#N)Cc1cc2c(cc1F)-c1cc3c(cc1CO2)oc(=O)n3C (stereo partly shown)", "inhibition at 0.005 µM": "76.5 to 93.9%"}
{"compound": "CN(C)C[C@](C)(O)C(=O)N[C@H](C#N)Cc1ccc(-c2ccc3oc(=O)n(C)c3c2)cc1", "inhibition at 0.005 µM": "76.5 to 93.9%"}
{"compound": "CN(C)C[C@](C)(O)C(=O)N[C@H](C#N)Cc1ccc(-c2ccc3oc(=O)n(CCN4CCOCC4)c3c2)cc1F", "inhibition at 0.005 µM": "76.5 to 93.9%"}
{"compound": "CN(C)C[C@](C)(O)C(=O)N[C@H](C#N)Cc1ccc(-c2ccc3c(c2)C2(CCCN(C)C2)C(=O)N3C)cc1 (stereo partly shown)", "inhibition at 0.005 µM": "≥ 93.9%"}
{"compound": "Cc1cn2cc(-c3ccc(C[C@@H](C#N)NC(=O)[C@@H](O)CN(C)C)cc3)cc2c(C)n1", "inhibition at 0.005 µM": "≤ 76.5%"}

====

Target: human DPP1 enzyme (Homo sapiens (Human), UniProt P53634)
Assay: Human DPP1 enzyme single-point percent inhibition testing (HL-60 lysate, H-Gly-Arg-AMC substrate)
Type: biochemical
Conditions: read-out: human DPP1 enzyme % inhibition @ 10 nM, 10 nM compound, 400 μM H-Gly-Arg-AMC, 10 min pre-incubation at 37° C.

{"compound": "CN(C)C[C@](C)(O)C(=O)NC(C#N)Cc1cc2c(cc1F)-c1cc(C3COC3)c(F)cc1CO2 (stereo partly shown)", "study.system": "human DPP1 enzyme (Homo sapiens (Human), UniProt P53634)", "inhibition at 0.01 µM": "≤ 40%"}
{"compound": "CN(C)C[C@H](O)C(=O)N[C@H](C#N)Cc1ccc(-c2ccc3c(c2)C2(CCCN(C)C2)C(=O)N3C)cc1 (stereo partly shown)", "study.system": "human DPP1 enzyme (Homo sapiens (Human), UniProt P53634)", "inhibition at 0.01 µM": "≤ 40%"}
{"compound": "CN(C)C[C@H](O)C(=O)N[C@H](C#N)Cc1ccc(-c2ccc3c(c2)C2(CCN(C4COC4)CC2)OC3)cc1F", "study.system": "human DPP1 enzyme (Homo sapiens (Human), UniProt P53634)", "inhibition at 0.01 µM": "40 to 66.7%"}
{"compound": "CN(C)C[C@](C)(O)C(=O)N[C@H](C#N)Cc1cc2c(cc1F)-c1ccc(C#N)cc1CO2", "study.system": "human DPP1 enzyme (Homo sapiens (Human), UniProt P53634)", "inhibition at 0.01 µM": "≤ 40%"}
{"compound": "CO[C@@H](CN(C)C)C(=O)N[C@H](C#N)Cc1ccc(-c2ccc3c(c2)C2(CN(C)C2)OC3=O)cc1", "study.system": "human DPP1 enzyme (Homo sapiens (Human), UniProt P53634)", "inhibition at 0.01 µM": "≤ 40%"}
{"compound": "CO[C@@H](CN(C)C)C(=O)N[C@H](C#N)Cc1ccc(-c2ccc3cnn(C)c3c2)cc1", "study.system": "human DPP1 enzyme (Homo sapiens (Human), UniProt P53634)", "inhibition at 0.01 µM": "≤ 40%"}
{"compound": "CN(C)C[C@](C)(O)C(=O)N[C@H](C#N)Cc1ccc(-c2ccc3c(c2)C2(CC3)CCN(C)CC2)cc1F", "study.system": "human DPP1 enzyme (Homo sapiens (Human), UniProt P53634)", "inhibition at 0.01 µM": "≥ 66.7%"}
{"compound": "CO[C@@H](CN(C)C)C(=O)N[C@H](C#N)Cc1ccc(-c2ccc3c(c2)C2(CCN(C)C2)OC3=O)cc1 (stereo partly shown)", "study.system": "human DPP1 enzyme (Homo sapiens (Human), UniProt P53634)", "inhibition at 0.01 µM": "≤ 40%"}
{"compound": "CO[C@@H](CN(C)C)C(=O)N[C@H](C#N)Cc1ccc(-c2ccc3c(n2)CCCN3)cc1", "study.system": "human DPP1 enzyme (Homo sapiens (Human), UniProt P53634)", "inhibition at 0.01 µM": "≤ 40%"}
{"compound": "CN(C)C[C@H](O)C(=O)N[C@H](C#N)Cc1ccc(-c2ccc(S(=O)(=O)N3CCC3)cc2)cc1F", "study.system": "human DPP1 enzyme (Homo sapiens (Human), UniProt P53634)", "inhibition at 0.01 µM": "≤ 40%"}
{"compound": "CO[C@@H](CN(C)C)C(=O)N[C@H](C#N)Cc1ccc(-c2ccc3c(c2)C2(CCCN(C)C2)C(=O)N3C)cc1F (stereo partly shown)", "study.system": "human DPP1 enzyme (Homo sapiens (Human), UniProt P53634)", "inhibition at 0.01 µM": "40 to 66.7%"}
{"compound": "CN(C)C[C@](C)(O)C(=O)N[C@H](C#N)Cc1ccc(-c2ccc3c(n2)CCCN3)cc1", "study.system": "human DPP1 enzyme (Homo sapiens (Human), UniProt P53634)", "inhibition at 0.01 µM": "≤ 40%"}
{"compound": "CO[C@@H](CN(C)C)C(=O)N[C@H](C#N)Cc1ccc(-c2ccc(CN3CCN(C)CC3)cc2)cc1F", "study.system": "human DPP1 enzyme (Homo sapiens (Human), UniProt P53634)", "inhibition at 0.01 µM": "≤ 40%"}
{"compound": "CN(C)C[C@H](O)C(=O)N[C@H](C#N)Cc1ccc(-c2ccc3oc(=O)n(C)c3c2)cc1F", "study.system": "human DPP1 enzyme (Homo sapiens (Human), UniProt P53634)", "inhibition at 0.01 µM": "40 to 66.7%"}
{"compound": "CN(C)C[C@H](O)C(=O)N[C@H](C#N)Cc1ccc(-c2ccc3c(c2)C2(CCN(C)C2)OC3=O)cc1F (stereo partly shown)", "study.system": "human DPP1 enzyme (Homo sapiens (Human), UniProt P53634)", "inhibition at 0.01 µM": "40 to 66.7%"}
{"compound": "CN(C)C[C@H](O)C(=O)N[C@H](C#N)Cc1ccc(-c2ccc3cnn(C4CCN(C)CC4)c3c2)cc1", "study.system": "human DPP1 enzyme (Homo sapiens (Human), UniProt P53634)", "inhibition at 0.01 µM": "40 to 66.7%"}
{"compound": "CN(C)C[C@](C)(O)C(=O)N[C@H](C#N)Cc1ccc(-c2cnc3c(n2)CCCC3)cc1", "study.system": "human DPP1 enzyme (Homo sapiens (Human), UniProt P53634)", "inhibition at 0.01 µM": "≤ 40%"}
{"compound": "CN(C)C[C@](C)(O)C(=O)N[C@H](C#N)Cc1ccc(-c2ccc(CN3CCN(C)CC3)cc2)cc1F", "study.system": "human DPP1 enzyme (Homo sapiens (Human), UniProt P53634)", "inhibition at 0.01 µM": "40 to 66.7%"}
{"compound": "CN(C)C[C@](C)(O)C(=O)N[C@H](C#N)Cc1ccc(-c2ccc3c(c2)C2(CCN(C4COC4)CC2)OC3)cc1F", "study.system": "human DPP1 enzyme (Homo sapiens (Human), UniProt P53634)", "inhibition at 0.01 µM": "≥ 66.7%"}
{"compound": "CO[C@@H](CN(C)C)C(=O)N[C@H](C#N)Cc1ccc(-c2ccc3c(c2)C2(CCN(C)C2)OC3=O)cc1F (stereo partly shown)", "study.system": "human DPP1 enzyme (Homo sapiens (Human), UniProt P53634)", "inhibition at 0.01 µM": "≥ 66.7%"}
{"compound": "CN(C)C[C@](C)(O)C(=O)N[C@H](C#N)Cc1ccc(-c2ccc3nnn(C)c3c2)cc1", "study.system": "human DPP1 enzyme (Homo sapiens (Human), UniProt P53634)", "inhibition at 0.01 µM": "40 to 66.7%"}
{"compound": "CN(C)C[C@](C)(O)C(=O)NC(C#N)Cc1cc2c(cc1F)-c1ccc3oc(=O)n(C)c3c1CO2 (stereo partly shown)", "study.system": "human DPP1 enzyme (Homo sapiens (Human), UniProt P53634)", "inhibition at 0.01 µM": "≤ 40%"}
{"compound": "CN(C)C[C@](C)(O)C(=O)N[C@H](C#N)Cc1ccc(-c2ccc3c(c2)C2(CCN(C)C2)OC3=O)cc1 (stereo partly shown)", "study.system": "human DPP1 enzyme (Homo sapiens (Human), UniProt P53634)", "inhibition at 0.01 µM": "≥ 66.7%"}
{"compound": "CO[C@@H](CN(C)C)C(=O)NC(C#N)Cc1cc2c(cc1F)-c1cc3c(cc1CO2)oc(=O)n3C (stereo partly shown)", "study.system": "human DPP1 enzyme (Homo sapiens (Human), UniProt P53634)", "inhibition at 0.01 µM": "≤ 40%"}
{"compound": "CO[C@@H](CN(C)C)C(=O)N[C@H](C#N)Cc1ccc(-c2cnc3c(n2)CCCC3)cc1", "study.system": "human DPP1 enzyme (Homo sapiens (Human), UniProt P53634)", "inhibition at 0.01 µM": "≤ 40%"}
{"compound": "CN(C)C[C@H](O)C(=O)N[C@H](C#N)Cc1ccc(-c2ccc3c(c2)C2(CCN(C)C2)OC3=O)cc1 (stereo partly shown)", "study.system": "human DPP1 enzyme (Homo sapiens (Human), UniProt P53634)", "inhibition at 0.01 µM": "40 to 66.7%"}
{"compound": "CN(C)C[C@H](O)C(=O)N[C@H](C#N)Cc1cc2c(cc1F)-c1ccc(F)cc1CO2", "study.system": "human DPP1 enzyme (Homo sapiens (Human), UniProt P53634)", "inhibition at 0.01 µM": "≤ 40%"}
{"compound": "CO[C@@H](CN(C)C)C(=O)N[C@H](C#N)Cc1ccc(-c2ccc(S(=O)(=O)N3CCC3)cc2)cc1F", "study.system": "human DPP1 enzyme (Homo sapiens (Human), UniProt P53634)", "inhibition at 0.01 µM": "≤ 40%"}
